- condition description: in ethanol, 313.15 K
observable: solubility (mole fraction)
I'd appreciate a reply containing only the number, no unit.

Query string: Using the record for "Nc1nc2ccc(OC(F)(F)F)cc2s1" , report its solubility (mole fraction).
Result string: 0.273

====

- condition description: in n-propanol, 308.15 K
observable: solubility (mole fraction)
I'd appreciate a reply containing only the number, no unit.

Query string: Using the record for "Nc1nc2ccc(OC(F)(F)F)cc2s1" , report its solubility (mole fraction).
Result string: 0.267

====

- condition description: in ethanol, 303.15 K
observable: solubility (mole fraction)
I'd appreciate a reply containing only the number, no unit.

Query string: Using the record for "Nc1nc2ccc(OC(F)(F)F)cc2s1" , report its solubility (mole fraction).
Result string: 0.236

====

- condition description: in n-propanol, 293.15 K
observable: solubility (mole fraction)
I'd appreciate a reply containing only the number, no unit.

Query string: Using the record for "Nc1nc2ccc(OC(F)(F)F)cc2s1" , report its solubility (mole fraction).
Result string: 0.215

====

- condition description: in n-propanol, 323.15 K
observable: solubility (mole fraction)

Query string: Using the record for "Nc1nc2ccc(OC(F)(F)F)cc2s1" , report its solubility (mole fraction).
Result string: 0.333

====

- condition description: in acetone, 313.15 K
observable: solubility (mole fraction)
I'd appreciate a reply containing only the number, no unit.

Query string: Using the record for "Nc1nc2ccc(OC(F)(F)F)cc2s1" , report its solubility (mole fraction).
Result string: 0.449

====

- condition description: in n-propanol, 313.15 K
observable: solubility (mole fraction)
I'd appreciate a reply containing only the number, no unit.

Query string: Using the record for "Nc1nc2ccc(OC(F)(F)F)cc2s1" , report its solubility (mole fraction).
Result string: 0.287

====

- condition description: in ethanol, 283.15 K
observable: solubility (mole fraction)

Query string: Using the record for "Nc1nc2ccc(OC(F)(F)F)cc2s1" , report its solubility (mole fraction).
Result string: 0.188

====

- condition description: in acetone, 323.15 K
observable: solubility (mole fraction)
I'd appreciate a reply containing only the number, no unit.

Query string: Using the record for "Nc1nc2ccc(OC(F)(F)F)cc2s1" , report its solubility (mole fraction).
Result string: 0.477

====

- condition description: in ethanol, 298.15 K
observable: solubility (mole fraction)
I'd appreciate a reply containing only the number, no unit.

Query string: Using the record for "Nc1nc2ccc(OC(F)(F)F)cc2s1" , report its solubility (mole fraction).
Result string: 0.223

====

- condition description: in acetone, 308.15 K
observable: solubility (mole fraction)
I'd appreciate a reply containing only the number, no unit.

Query string: Using the record for "Nc1nc2ccc(OC(F)(F)F)cc2s1" , report its solubility (mole fraction).
Result string: 0.437

====

- condition description: in acetone, 318.15 K
observable: solubility (mole fraction)

Query string: Using the record for "Nc1nc2ccc(OC(F)(F)F)cc2s1" , report its solubility (mole fraction).
Result string: 0.464

====

- condition description: in ethanol, 293.15 K
observable: solubility (mole fraction)
I'd appreciate a reply containing only the number, no unit.

Query string: Using the record for "Nc1nc2ccc(OC(F)(F)F)cc2s1" , report its solubility (mole fraction).
Result string: 0.212

====

- condition description: in n-propanol, 278.15 K
observable: solubility (mole fraction)
I'd appreciate a reply containing only the number, no unit.

Query string: Using the record for "Nc1nc2ccc(OC(F)(F)F)cc2s1" , report its solubility (mole fraction).
Result string: 0.179

====

- condition description: in acetone, 293.15 K
observable: solubility (mole fraction)
I'd appreciate a reply containing only the number, no unit.

Query string: Using the record for "Nc1nc2ccc(OC(F)(F)F)cc2s1" , report its solubility (mole fraction).
Result string: 0.4

====

- condition description: in acetone, 303.15 K
observable: solubility (mole fraction)
I'd appreciate a reply containing only the number, no unit.

Query string: Using the record for "Nc1nc2ccc(OC(F)(F)F)cc2s1" , report its solubility (mole fraction).
Result string: 0.425

====

- condition description: in ethanol, 288.15 K
observable: solubility (mole fraction)
I'd appreciate a reply containing only the number, no unit.

Query string: Using the record for "Nc1nc2ccc(OC(F)(F)F)cc2s1" , report its solubility (mole fraction).
Result string: 0.198

====

- condition description: in n-propanol, 318.15 K
observable: solubility (mole fraction)
I'd appreciate a reply containing only the number, no unit.

Query string: Using the record for "Nc1nc2ccc(OC(F)(F)F)cc2s1" , report its solubility (mole fraction).
Result string: 0.312

====

- condition description: in n-propanol, 298.15 K
observable: solubility (mole fraction)
I'd appreciate a reply containing only the number, no unit.

Query string: Using the record for "Nc1nc2ccc(OC(F)(F)F)cc2s1" , report its solubility (mole fraction).
Result string: 0.23

====

- condition description: in acetone, 298.15 K
observable: solubility (mole fraction)
I'd appreciate a reply containing only the number, no unit.

Query string: Using the record for "Nc1nc2ccc(OC(F)(F)F)cc2s1" , report its solubility (mole fraction).
Result string: 0.414

====

- condition description: in ethanol, 278.15 K
observable: solubility (mole fraction)
I'd appreciate a reply containing only the number, no unit.

Query string: Using the record for "Nc1nc2ccc(OC(F)(F)F)cc2s1" , report its solubility (mole fraction).
Result string: 0.179

====

- condition description: in ethanol, 323.15 K
observable: solubility (mole fraction)
I'd appreciate a reply containing only the number, no unit.

Query string: Using the record for "Nc1nc2ccc(OC(F)(F)F)cc2s1" , report its solubility (mole fraction).
Result string: 0.308

====

- condition description: in acetone, 283.15 K
observable: solubility (mole fraction)

Query string: Using the record for "Nc1nc2ccc(OC(F)(F)F)cc2s1" , report its solubility (mole fraction).
Result string: 0.379

====

- condition description: in ethanol, 308.15 K
observable: solubility (mole fraction)
I'd appreciate a reply containing only the number, no unit.

Query string: Using the record for "Nc1nc2ccc(OC(F)(F)F)cc2s1" , report its solubility (mole fraction).
Result string: 0.255

====

- condition description: in n-propanol, 288.15 K
observable: solubility (mole fraction)
I'd appreciate a reply containing only the number, no unit.

Query string: Using the record for "Nc1nc2ccc(OC(F)(F)F)cc2s1" , report its solubility (mole fraction).
Result string: 0.202

====

- condition description: in acetone, 278.15 K
observable: solubility (mole fraction)
I'd appreciate a reply containing only the number, no unit.

Query string: Using the record for "Nc1nc2ccc(OC(F)(F)F)cc2s1" , report its solubility (mole fraction).
Result string: 0.371
